# SYSTEM_TESTED: Mu-type opioid receptor (Homo sapiens)
# Sequence (P35372 whole entry): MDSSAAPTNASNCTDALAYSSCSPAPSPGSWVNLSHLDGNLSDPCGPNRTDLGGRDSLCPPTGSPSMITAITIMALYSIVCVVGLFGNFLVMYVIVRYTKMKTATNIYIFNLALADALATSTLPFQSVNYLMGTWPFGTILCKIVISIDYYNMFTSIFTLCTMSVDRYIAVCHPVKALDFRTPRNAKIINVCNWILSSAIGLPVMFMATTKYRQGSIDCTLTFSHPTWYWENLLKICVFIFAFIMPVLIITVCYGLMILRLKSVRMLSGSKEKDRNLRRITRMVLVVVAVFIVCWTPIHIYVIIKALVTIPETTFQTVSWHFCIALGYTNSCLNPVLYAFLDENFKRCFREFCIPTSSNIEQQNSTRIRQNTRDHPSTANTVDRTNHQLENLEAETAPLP
# TEST: DRUGMATRIX: Opiate mu (OP3, MOP) radioligand binding (ligand: [3H] Diprenorphine)
# Assay type: cell membranes, CHO-K1, Membrane
# RECORDED_CONDITIONS: cho-k1; Not Active = under 50% inhibition at 10 µM
MEASURED_QUANTITY: IC50

Worked cases, answers included:
compound=COC(=O)Nc1nc2cc(C(=O)c3ccc(F)cc3)ccc2[nH]1 system_tested="Mu-type opioid receptor (Homo sapiens)" recorded_result="Not Active"
compound="CC(=N)S [THIOACETAMIDE]" system_tested="Mu-type opioid receptor (Homo sapiens)" recorded_result="Not Active"
compound="NC(=O)N1c2ccccc2CC(=O)c2ccccc21 [OXCARBAZEPINE]" system_tested="Mu-type opioid receptor (Homo sapiens)" recorded_result="Not Active"
compound=Cc1cc(O)cc(C)c1Cl system_tested="Mu-type opioid receptor (Homo sapiens)" recorded_result="Not Active"
compound=CC(C)NC[C@H](O)COc1cccc2ccccc12 system_tested="Mu-type opioid receptor (Homo sapiens)" recorded_result="Not Active"

IC50 for CC(C)(C)NCC(O)COc1cccc2c1CC(O)C(O)C2 (configuration not stated) ? Not Active

IC50 for N=C(N)c1ccc(OCCCCCOc2ccc(C(=N)N)cc2)cc1 ? Not Active

IC50 for CC(C)NC[C@@H](O)COc1cccc2ccccc12 ? Not Active

IC50 for CN1C(=O)CN=C(c2ccccc2)c2cc([N+](=O)[O-])ccc21 ? Not Active

* * *

# SYSTEM_TESTED: UniProt P21452
# Sequence (P21452 whole entry): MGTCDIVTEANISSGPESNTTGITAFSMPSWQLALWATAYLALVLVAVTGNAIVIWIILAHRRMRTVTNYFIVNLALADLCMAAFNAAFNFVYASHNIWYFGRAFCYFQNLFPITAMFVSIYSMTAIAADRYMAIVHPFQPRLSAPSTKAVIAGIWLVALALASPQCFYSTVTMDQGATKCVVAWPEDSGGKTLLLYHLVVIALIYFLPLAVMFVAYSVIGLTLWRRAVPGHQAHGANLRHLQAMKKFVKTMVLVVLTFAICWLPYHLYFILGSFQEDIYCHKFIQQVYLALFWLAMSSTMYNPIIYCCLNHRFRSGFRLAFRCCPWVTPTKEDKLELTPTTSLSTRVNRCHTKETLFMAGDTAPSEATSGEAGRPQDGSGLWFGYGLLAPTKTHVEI
# Type: cell membranes, CHO, Membrane
# RECORDED_CONDITIONS: cho
MEASURED_QUANTITY: IC50

Worked cases, answers included:
compound=CCCCC1=NC2(CCCC2)C(=O)N1Cc1ccc(-c2ccccc2-c2nnn[nH]2)cc1 recorded_result="Not Active"
compound="ClC(Cl)(Cl)Cl [CARBON TETRACHLORIDE]" recorded_result="Not Active"
compound=CN1C(=O)CN=C(c2ccccc2)c2cc([N+](=O)[O-])ccc21 recorded_result="Not Active"
compound=C[C@H]1[C@H](NC(=O)/C(=N\OC(C)(C)C(=O)O)c2csc(N)n2)C(=O)N1S(=O)(=O)O recorded_result="Not Active"
compound=C[C@@](Cc1ccc(O)c(O)c1)(NN)C(=O)O.O recorded_result="Not Active"

IC50 for C[N+](C)(C)CCOC(=O)CCC(=O)OCC[N+](C)(C)C.[Cl-].[Cl-] [SUCCINYLCHOLINE CHLORIDE] ? Not Active

IC50 for CN1[C@@H]2CC[C@H]1C[C@@H](OC(c1ccccc1)c1ccccc1)C2 ? Not Active

IC50 for Cc1cccc(C)c1NC(=O)C1CCCCN1C (centres undefined) [MEPIVACAINE] ? Not Active

IC50 for NC(=O)c1cccnc1 [NIACINAMIDE] ? Not Active
